Entry source: patent US20210388087A1

# tgt: T1, Human CD137 ECD (human)
# T1 construct: entry includes C-terminal His-tag and biotin acceptor peptide; also called human CD137 extracellular domain; 4-1BB
# procedure-summary: Biacore SPR, vs parent H183/L072
result-type: fold change of affinity (fold)
Quick reminder: number only, in fold, skip the unit.

Completed entries (count: 2):
1. H183/L072 VL P95W (antibody, name in Kabat numbering, V domains shown, Dual-Ig) VH: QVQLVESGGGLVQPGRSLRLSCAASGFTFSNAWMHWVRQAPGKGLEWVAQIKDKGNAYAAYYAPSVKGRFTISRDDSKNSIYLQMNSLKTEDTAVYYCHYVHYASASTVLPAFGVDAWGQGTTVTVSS VL: DIVMTQSPLSLPVTPGEPASISCQASQELVHMNRNTYLHWYQQKPGQAPRLLIYKVSNRFPGVPDRFSGSGSGTDFTLKISRVEAEDVGVYYCAQGTSVWFTFGQGTKLEIK	0
2. H183/L072 VL L27bI (antibody, name in Kabat numbering, V domains shown, Dual-Ig) VH: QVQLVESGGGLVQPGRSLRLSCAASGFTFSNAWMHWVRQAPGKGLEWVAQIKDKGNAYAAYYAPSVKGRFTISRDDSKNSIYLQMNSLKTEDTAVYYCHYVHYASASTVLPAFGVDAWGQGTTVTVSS VL: DIVMTQSPLSLPVTPGEPASISCQASQEIVHMNRNTYLHWYQQKPGQAPRLLIYKVSNRFPGVPDRFSGSGSGTDFTLKISRVEAEDVGVYYCAQGTSVPFTFGQGTKLEIK	1.1

Exercise: Which value of fold change of affinity has been reported for H183/L072 VL P95Q (antibody, name in Kabat numbering, V domains shown, Dual-Ig) VH: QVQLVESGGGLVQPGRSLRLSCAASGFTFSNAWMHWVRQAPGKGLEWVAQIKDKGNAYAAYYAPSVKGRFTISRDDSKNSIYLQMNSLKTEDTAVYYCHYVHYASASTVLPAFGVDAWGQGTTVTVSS VL: DIVMTQSPLSLPVTPGEPASISCQASQELVHMNRNTYLHWYQQKPGQAPRLLIYKVSNRFPGVPDRFSGSGSGTDFTLKISRVEAEDVGVYYCAQGTSVQFTFGQGTKLEIK in the records?
Solution: 0

Exercise: Which value of fold change of affinity has been reported for H183/L072 VL V94F (antibody, name in Kabat numbering, V domains shown, Dual-Ig) VH: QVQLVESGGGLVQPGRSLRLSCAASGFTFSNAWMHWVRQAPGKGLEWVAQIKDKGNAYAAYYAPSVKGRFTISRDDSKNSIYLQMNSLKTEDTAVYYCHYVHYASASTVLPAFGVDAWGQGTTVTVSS VL: DIVMTQSPLSLPVTPGEPASISCQASQELVHMNRNTYLHWYQQKPGQAPRLLIYKVSNRFPGVPDRFSGSGSGTDFTLKISRVEAEDVGVYYCAQGTSFPFTFGQGTKLEIK in the records?
Solution: 0

Exercise: Which value of fold change of affinity has been reported for H183/L072 VL A25S (antibody, name in Kabat numbering, V domains shown, Dual-Ig) VH: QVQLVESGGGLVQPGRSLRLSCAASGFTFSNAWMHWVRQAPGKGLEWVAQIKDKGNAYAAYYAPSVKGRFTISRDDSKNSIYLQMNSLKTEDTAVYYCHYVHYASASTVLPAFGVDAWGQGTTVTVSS VL: DIVMTQSPLSLPVTPGEPASISCQSSQELVHMNRNTYLHWYQQKPGQAPRLLIYKVSNRFPGVPDRFSGSGSGTDFTLKISRVEAEDVGVYYCAQGTSVPFTFGQGTKLEIK in the records?
Solution: 1.1

Exercise: Which value of fold change of affinity has been reported for H183/L072 VL N30F (antibody, name in Kabat numbering, V domains shown, Dual-Ig) VH: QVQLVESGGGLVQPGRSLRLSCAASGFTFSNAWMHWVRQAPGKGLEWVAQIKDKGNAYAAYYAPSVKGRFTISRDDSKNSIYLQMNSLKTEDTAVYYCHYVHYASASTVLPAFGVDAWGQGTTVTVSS VL: DIVMTQSPLSLPVTPGEPASISCQASQELVHMNRFTYLHWYQQKPGQAPRLLIYKVSNRFPGVPDRFSGSGSGTDFTLKISRVEAEDVGVYYCAQGTSVPFTFGQGTKLEIK in the records?
Solution: 0.9

Exercise: Which value of fold change of affinity has been reported for H183/L072 VL T31E (antibody, name in Kabat numbering, V domains shown, Dual-Ig) VH: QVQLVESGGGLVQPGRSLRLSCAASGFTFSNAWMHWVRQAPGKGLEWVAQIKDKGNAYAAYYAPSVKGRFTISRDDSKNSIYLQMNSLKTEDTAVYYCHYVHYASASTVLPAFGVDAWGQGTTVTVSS VL: DIVMTQSPLSLPVTPGEPASISCQASQELVHMNRNEYLHWYQQKPGQAPRLLIYKVSNRFPGVPDRFSGSGSGTDFTLKISRVEAEDVGVYYCAQGTSVPFTFGQGTKLEIK in the records?
Solution: 0.4

Exercise: Which value of fold change of affinity has been reported for H183/L072 VL F96A (antibody, name in Kabat numbering, V domains shown, Dual-Ig) VH: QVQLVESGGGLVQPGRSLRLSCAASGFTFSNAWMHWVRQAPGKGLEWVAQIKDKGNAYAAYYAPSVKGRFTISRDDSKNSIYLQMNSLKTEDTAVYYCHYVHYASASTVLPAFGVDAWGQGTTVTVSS VL: DIVMTQSPLSLPVTPGEPASISCQASQELVHMNRNTYLHWYQQKPGQAPRLLIYKVSNRFPGVPDRFSGSGSGTDFTLKISRVEAEDVGVYYCAQGTSVPATFGQGTKLEIK in the records?
Solution: 0

Exercise: Which value of fold change of affinity has been reported for H183/L072 VL V51A (antibody, name in Kabat numbering, V domains shown, Dual-Ig) VH: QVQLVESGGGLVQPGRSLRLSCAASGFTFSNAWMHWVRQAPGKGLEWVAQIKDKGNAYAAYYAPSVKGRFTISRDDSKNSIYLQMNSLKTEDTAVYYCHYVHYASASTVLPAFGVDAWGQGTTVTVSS VL: DIVMTQSPLSLPVTPGEPASISCQASQELVHMNRNTYLHWYQQKPGQAPRLLIYKASNRFPGVPDRFSGSGSGTDFTLKISRVEAEDVGVYYCAQGTSVPFTFGQGTKLEIK in the records?
Solution: 0.8

Exercise: Which value of fold change of affinity has been reported for H183/L072 VL Q27A (antibody, name in Kabat numbering, V domains shown, Dual-Ig) VH: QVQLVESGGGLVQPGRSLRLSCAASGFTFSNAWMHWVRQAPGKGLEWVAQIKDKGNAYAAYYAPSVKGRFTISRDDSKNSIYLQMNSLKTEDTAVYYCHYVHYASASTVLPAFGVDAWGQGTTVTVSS VL: DIVMTQSPLSLPVTPGEPASISCQASAELVHMNRNTYLHWYQQKPGQAPRLLIYKVSNRFPGVPDRFSGSGSGTDFTLKISRVEAEDVGVYYCAQGTSVPFTFGQGTKLEIK in the records?
Solution: 1
